Assay: Fraction unbound in human plasma at 5 uM by rapid equilibrium dialysis method
Format: ADME, cell-free
propertyLabel: fraction unbound at 5 µM

For this compound ( "C=CC(=O)Nc1cccc(-n2c(=O)cc(C)c3cnc(Nc4ccc(OCCN(C)C)cc4OC)nc32)c1" ), measured fraction unbound at 5 µM is 0.54

###

Test: Fraction unbound in mouse plasma at 5 uM by rapid equilibrium dialysis method
Type: ADME, cell-free
propertyLabel: fraction unbound at 5 µM

Recorded result, "C=CC(=O)Nc1cccc(-n2c(=O)cc(C)c3cnc(Nc4ccc(OCCN(C)C)cc4OC)nc32)c1" , fraction unbound at 5 µM: 0.25

###

Experiment: AUC (0 to t) in athymic nude mouse xenografted with human NCI-H1975 cells at 30 mg/kg, po qd administered for 2 weeks started on day 6 post tumor implantation
Format: ADME, organism-based
Details: in vivo
propertyLabel: AUC(0-t) at 336 h (µM·h)
# value in µM·h; strip the unit string

Per the records, this molecule ( "C=CC(=O)Nc1cccc(-n2c(=O)cc(C)c3cnc(Nc4ccc(OCCN(C)C)cc4OC)nc32)c1" ) has AUC(0-t) at 336 h equal to 0.56
